tested-on: purified human HDAC6 (Homo sapiens, UniProt Q9UBN7)
Construct: purchased BPS Bioscience 5006
Sequence (Q9UBN7 whole entry): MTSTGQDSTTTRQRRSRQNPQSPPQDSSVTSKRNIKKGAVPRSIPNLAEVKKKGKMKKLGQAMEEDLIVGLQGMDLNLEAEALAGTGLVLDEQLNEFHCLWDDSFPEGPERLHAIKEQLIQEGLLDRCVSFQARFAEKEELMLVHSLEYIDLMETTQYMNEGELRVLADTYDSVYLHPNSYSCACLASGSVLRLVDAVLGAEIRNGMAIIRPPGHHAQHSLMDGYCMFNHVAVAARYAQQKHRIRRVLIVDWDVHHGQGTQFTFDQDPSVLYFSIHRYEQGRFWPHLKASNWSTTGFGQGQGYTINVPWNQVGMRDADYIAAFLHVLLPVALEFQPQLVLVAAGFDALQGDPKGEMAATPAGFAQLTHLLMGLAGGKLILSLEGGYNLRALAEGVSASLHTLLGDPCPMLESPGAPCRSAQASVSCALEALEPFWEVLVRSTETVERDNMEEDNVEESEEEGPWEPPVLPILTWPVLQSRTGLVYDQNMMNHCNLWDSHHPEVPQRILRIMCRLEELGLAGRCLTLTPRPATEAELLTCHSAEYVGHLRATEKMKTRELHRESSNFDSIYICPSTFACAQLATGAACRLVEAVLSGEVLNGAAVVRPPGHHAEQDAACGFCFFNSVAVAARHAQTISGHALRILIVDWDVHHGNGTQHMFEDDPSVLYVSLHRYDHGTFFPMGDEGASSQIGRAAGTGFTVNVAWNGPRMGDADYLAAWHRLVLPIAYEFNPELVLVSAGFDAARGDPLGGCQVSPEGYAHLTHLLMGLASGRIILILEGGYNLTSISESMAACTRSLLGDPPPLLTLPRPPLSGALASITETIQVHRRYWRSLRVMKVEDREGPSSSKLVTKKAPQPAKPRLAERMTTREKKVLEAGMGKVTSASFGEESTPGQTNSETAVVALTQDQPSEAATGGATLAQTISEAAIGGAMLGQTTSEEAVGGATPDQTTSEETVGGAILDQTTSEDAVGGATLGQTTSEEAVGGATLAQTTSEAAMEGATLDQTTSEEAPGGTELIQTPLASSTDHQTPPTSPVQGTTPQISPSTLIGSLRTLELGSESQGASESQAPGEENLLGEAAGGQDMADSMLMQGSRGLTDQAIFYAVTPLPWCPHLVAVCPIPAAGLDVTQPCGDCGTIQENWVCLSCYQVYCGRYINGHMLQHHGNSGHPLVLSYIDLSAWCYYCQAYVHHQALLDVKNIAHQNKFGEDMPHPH
method: HDAC6 Enzyme Assay
Assay type: biochemical
test-conditions: purified human HDAC6, substrate Ac-Arg-Gly-Lys(Ac)-AMC, 1 hour at 30° C.; reported as bins
pIC50: −log10 of the molar value.
Below, each entry is listed with its recorded pIC50.
property-label: pIC50

1) Cc1c(C(=O)N[C@H](C)c2ccc(C(=O)NO)cc2)sc2ccccc12 [Compound I-12] | > 7.00
2) CC(NC(=O)c1cccn1C)c1ccc(C(=O)NO)cc1 (stereo not drawn) [Compound I-356] | > 7.00
3) CC(C)C(NC(=O)c1cccn1C)c1ccc(C(=O)NO)cc1 (stereo not drawn) [Compound I-30] | > 7.00
4) Cc1cc(C(=O)NO)ccc1C(C)NC(=O)c1cc2ccccc2s1 (stereo not drawn) [Compound I-485] | 6.30 to 7.00
5) C[C@@H](NC(=O)c1cc2ccccc2n1C)c1cccc(C(=O)NO)c1 [Compound I-330] | 6.30 to 7.00
6) Cc1nc2cc(C(=O)NC(C)c3ccc(C(=O)NO)cc3)ccc2s1 (stereo not drawn) [Compound I-230] | > 7.00
7) Cn1cc(C(=O)NC(c2ccc(C(=O)NO)cc2)C(C)(C)C)c2ccccc21 (stereo not drawn) [Compound I-107] | > 7.00
8) CC(NC(=O)C1CCCCC1)c1ccc(C(=O)NO)cc1 (stereo not drawn) [Compound I-208] | > 7.00
9) CC(C)[C@H](NC(=O)c1cc2ccccc2s1)c1ccc(C(=O)NO)cc1 [Compound I-67] | 6.30 to 7.00

====

tested-on: purified human HDAC6 (Homo sapiens, UniProt Q9UBN7)
Construct: purchased BPS Bioscience 5006
method: HDAC6 Enzyme Assay
Assay type: biochemical
test-conditions: purified human HDAC6, substrate Ac-Arg-Gly-Lys(Ac)-AMC, 1 hour at 30° C.; reported as bins
pIC50: −log10 of the molar value.
property-label: pIC50

1) Cc1[nH]c2ccccc2c1CC(=O)NC(c1ccc(C(=O)NO)cc1)C(C)C (centres unmarked) [Compound I-174] | 6.30 to 7.00
2) Cc1ccc2[nH]c(C(=O)NC(c3ccc(C(=O)NO)cc3)C(C)(C)C)c(C)c2c1 (centres unmarked) [Compound I-329] | > 7.00
3) CC(C)(C)C(NC(=O)c1cc2ccccc2o1)c1ccc(C(=O)NO)cc1 (centres unmarked) [Compound I-4] | > 7.00
4) Cc1ccc(NC(=O)N[C@@H](c2ccc(C(=O)NO)cc2)C(C)C)cc1C [Compound I-512] | > 7.00
5) CC(NC(=O)c1c[nH]c2ccccc12)c1cccc(C(=O)NO)c1 (centres unmarked) [Compound I-10] | 6.30 to 7.00
6) CC(C)C(NC(=O)C1CCCCC1)c1ccc(C(=O)NO)cc1 (centres unmarked) [Compound I-344] | 6.30 to 7.00
7) CCC[C@@H](NC(=O)c1cc2ccccc2o1)c1ccc(C(=O)NO)cc1 [Compound I-79] | > 7.00
8) CC(NC(=O)c1cc2ccccc2n1C)c1ccc(C(=O)NO)cc1 (centres unmarked) [Compound I-98] | > 7.00

====

tested-on: purified human HDAC6 (Homo sapiens, UniProt Q9UBN7)
Construct: purchased BPS Bioscience 5006
method: HDAC6 Enzyme Assay
Type: biochemical
test-conditions: purified human HDAC6, substrate Ac-Arg-Gly-Lys(Ac)-AMC, 1 hour at 30° C.; reported as bins
Below, each entry is listed with its recorded IC50.
property-label: IC50

1. Cc1ccccc1S(=O)(=O)NC(C)c1ccc(C(=O)NO)cc1 (stereo not drawn) | 100 to 500 nM
2. CC(NC(=O)C1CC1)c1ccc(C(=O)NO)cc1 (stereo not drawn) | 100 to 500 nM
3. Cc1cccc(C(=O)NC(C)c2ccc(C(=O)NO)cc2)c1 (stereo not drawn) | < 100 nM
4. Cc1ccc2[nH]c(C(=O)NC(c3ccc(C(=O)NO)cc3)C(C)(C)C)cc2c1 (stereo not drawn) | < 100 nM
5. CC(NC(=O)NCCc1ccccc1)c1ccc(C(=O)NO)cc1 (stereo not drawn) | < 100 nM
6. CC(C)(C)NC(=O)N[C@H](c1ccc(C(=O)NO)cc1)C(F)(F)F | 100 to 500 nM
7. Cc1nn(C)cc1C(=O)NC(c1ccc(C(=O)NO)cc1)C(C)(C)C (stereo not drawn) | 100 to 500 nM
8. CC(NC(=O)NC1CCCCC1)c1ccc(C(=O)NO)cc1 (stereo not drawn) | 100 to 500 nM
9. Cc1cc(C(=O)NC(C)c2cccc(C(=O)NO)c2)nn1C (stereo not drawn) | 100 to 500 nM
